- System: LOX IMVI melanoma
- Test Method Notes: NCI tumour cell line growth inhibition, 48 h
For each record, write down the corresponding TGI.

Example results:
Compound	Quantity Name	Result
CC(=O)Nc1c(C)ccc2c1C(=O)c1ccccc1C2=O	TGI	> 100 µM
O=C(O)c1ccc2c(c1)CC1(C2)Cc2ccccc2C1=O (stereo not given)	TGI	> 100 µM
COc1ccc(C(c2c[nH]c3ccc(Br)cc23)c2c[nH]c3ccc(Br)cc23)cc1	TGI	0.314 µM
COC(=O)C12C3C4C5C3(C#N)C1C5(C(=O)OC)C42C(=O)N(C(C)C)C(C)C (stereo not given)	TGI	> 100 µM
CCn1c(O)c(C=N)c(=O)n(CC)c1=O	TGI	> 100 µM

Working through the 4 compounds below one at a time, give TGI for each.
1. c1ccc(Nc2nnc(Cn3ccc4ccccc43)s2)cc1
2. CCOC(=O)NC(=O)c1cn(CCCOC(=O)CCCCCCCCCCC(=O)OCCCn2cc(C(=O)NC(=O)OCC)c(=O)n(C)c2=O)c(=O)n(C)c1=O
3. CC(=O)N(CCc1ccccc1)C(C#N)c1ccc(OCCCCCCCCCCOc2ccc(C(C#N)N(CCc3ccccc3)C(C)=O)cc2)cc1 (stereo not given)
4. [N-]=[NH+]CC(=O)OC(COCc1ccccc1)COCc1ccccc1

Output:
> 100 µM
> 100 µM
> 100 µM
> 100 µM

Please state TGI for every compound in the list that follows.
1. COC1=C(N2CC2)C(=O)c2nc3n(c2C1=O)CCC3
2. O=[N+]([O-])c1ccc2[nH]ncc2c1Cl
3. C=C1CC(C)(COc2ccc3ccc(=O)oc3c2)OC1=O (stereo not given)
4. COC1CC(OC2CCC3(C)C(CCC45CCC(C6=CC(=O)OC6)C(C)(CCC43)C5=O)C2)OC(C)C1O (stereo not given)

Output:
1. 2.15 µM
2. 38.9 µM
3. 5.65 µM
4. > 100 µM

# batch: return TGI for each of the 4 compounds below
1. Cc1nn(-c2ccccc2)c2[nH]c(=S)cnc12
2. COc1ccc(-c2c(CN3CCOCC3)sc3nc4ccccc4n23)cc1
3. CN(C)CCCCN1c2ccccc2Sc2cc(N=[N+]=[N-])ccc21
4. CC1=NN(C(=O)c2ccccc2O)C(=O)/C1=C/c1ccccc1O

Output:
1. > 100 µM
2. > 100 µM
3. 3.06 µM
4. 31.9 µM

====

- System: A549 NSCLC
- Test Method Notes: NCI tumour cell line growth inhibition, 48 h
Kindly supply the reported TGI values for the records listed here.

Solved cases below.
Compound	Result
CC(C)C1CCC/C=C/C=C/C=C/C=C/C(OC2OC(C)C(O)C(N)C2O)CC2OC(O)(CC(O)CC(O)C(O)CCC(=O)O1)CC(O)C2C(=O)O (stereo not given)	> 52.5 µM
COc1ccc2c(CN3CCC[C@H]3C(=O)O)cc3cc4c(cc3c2c1)OCO4	> 100 µM
O=C(Nc1ccc(F)cc1F)c1cc(Br)ccc1O	> 100 µM

Please give TGI for each item listed below.
1. C=C1CC(C)(COc2ccc3ccc(=O)oc3c2)OC1=O (stereo not given)
2. COC(=O)C(=O)C(C#N)c1ccc(CC#N)cc1 (stereo not given)
3. COc1cc(C(=O)C/C(CCC(=O)Nc2ccc(Cl)cc2C)=N/NC(=O)C(N)=O)ccc1O

Output:
["30.5 µM", "> 100 µM", "> 100 µM"]

I need TGI for every entry listed below, if you could help.
1. Nc1ncn(C2C=C(CO)C(O)C2O)c(=O)n1 (stereo not given)
2. OC(C/C(=N\N1CCCCC1)c1cccs1)(C(F)(F)F)C(F)(F)F
3. O=S(=O)(c1ccc(N=C2NN=C(c3c[nH]c4ccccc34)CS2)cc1)N1CCOCC1
4. O=C(Nc1ccc(F)cc1)C(=O)C(C1OC(=O)c2ccccc21)[N+](=O)[O-] (stereo not given)

Output:
1: > 100 µM; 2: > 10 µM; 3: > 100 µM; 4: > 100 µM
